System Tested: Potassium voltage-gated channel subfamily KQT member 1 (Homo sapiens) (UniProt P51787)
Sequence (P51787 whole entry, looked up): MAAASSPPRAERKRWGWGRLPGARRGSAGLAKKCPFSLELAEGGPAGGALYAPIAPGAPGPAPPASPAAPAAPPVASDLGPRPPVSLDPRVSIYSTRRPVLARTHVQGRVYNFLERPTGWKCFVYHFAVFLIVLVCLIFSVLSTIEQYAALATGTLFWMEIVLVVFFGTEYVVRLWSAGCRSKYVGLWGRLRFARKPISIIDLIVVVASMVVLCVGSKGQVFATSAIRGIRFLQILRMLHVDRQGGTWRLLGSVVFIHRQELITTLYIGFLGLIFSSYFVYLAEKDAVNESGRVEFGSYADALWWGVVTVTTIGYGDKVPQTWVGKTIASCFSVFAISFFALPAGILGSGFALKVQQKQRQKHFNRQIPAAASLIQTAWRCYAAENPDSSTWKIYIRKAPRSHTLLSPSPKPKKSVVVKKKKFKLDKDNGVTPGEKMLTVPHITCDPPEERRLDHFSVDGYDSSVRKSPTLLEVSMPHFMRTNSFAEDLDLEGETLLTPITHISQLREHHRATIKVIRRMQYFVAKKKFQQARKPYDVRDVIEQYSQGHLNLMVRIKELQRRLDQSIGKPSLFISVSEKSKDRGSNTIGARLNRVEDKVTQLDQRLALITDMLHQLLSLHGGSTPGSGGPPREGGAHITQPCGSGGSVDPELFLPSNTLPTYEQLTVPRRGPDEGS
Assay Explanation: KCNQ1 activators by electrophysiology – IonWorks patch clamp, KCNQ1-CHO cells, orthogonal assay for KCNQ1 potentiator project, confirmation (AID 493184)
Stated Conditions: automated patch clamp current, at 10 µM
Calls of active or inactive are those of the source.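 The calls were made as follows: active = current rise at least 3 SD above the untreated control mean in each of two repeat wells; inactive = the rest.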
Readout: outcome

INSERT INTO measurements (compound, readout, value_measured) VALUES
  ('CCn1cc(CN2CCC(C(=O)Nc3cccc(-c4cccc(Cl)c4)c3)CC2)cn1', 'outcome', 'inactive'),
  ('CC1=NN(c2ccccc2)C(=O)/C1=C/c1c(O)n(-c2ccc(F)c(Cl)c2)[nH]c1=O', 'outcome', 'inactive'),
  ('Oc1c(Br)cc(Br)cc1C=Nc1ccc2[nH]ncc2c1', 'outcome', 'inactive'),
  ('CCn1c(O)c(N=NC2=NC(=O)CS2)c2cc(C)ccc21', 'outcome', 'inactive'),
  ('COc1cc(C2(c3ccc(O)c(OC)c3)C(=O)Nc3c(C)cc(Br)cc32)ccc1O', 'outcome', 'inactive'),
  ('CC(C)NS(=O)(=O)c1ccc(NC(=O)C(C)Oc2ccc(C(=O)c3ccccc3)cc2)cc1 (stereo unspecified)', 'outcome', 'inactive'),
  ('CCCc1nc2oc3c(NCCN(C)C)ncnc3c2c2c1CCCC2', 'outcome', 'inactive'),
  ('O=C1C=CC(=O)N1CCNc1ncc(C(F)(F)F)cc1Cl', 'outcome', 'inactive'),
  ('Oc1c(Cl)cc(Cl)c(Cl)c1Cc1c(O)c(Cl)cc(Cl)c1Cl', 'outcome', 'inactive'),
  ('O=Cc1cc(N=Nc2ccccc2Cl)ccc1O', 'outcome', 'inactive'),
  ('Cc1cccc(/C=N/NC(=O)c2cc(Br)ccc2O)n1', 'outcome', 'inactive');
